Reported values of IC50 for individual entries
Test system: K562
Protocol details: Antiproliferative activity against human K562 cells after 72 hrs by MTT assay
Format: functional, cell-based
Conditions: K562, 72 h
Endpoint: IC50

- Mol: "CC(C)C(=O)CC[C@@H](C(=O)O)[C@H]1[C@H](O)C[C@@]2(C)C3=CC[C@H]4C(C)(C)[C@@H](O)CC[C@]4(C)C3=CC[C@]12C"
  Measured target: "K562"
  Endpoint: "IC50"
  Result: "> 40 µM"
- Mol: "CC(C)=CCC[C@@H](C(=O)O)[C@H]1[C@H](O)C[C@@]2(C)C3=C(CC[C@]12C)[C@@]1(C)CC[C@H](O)C(C)(C)[C@@H]1CC3"
  Measured target: "K562"
  Endpoint: "IC50"
  Result: "> 40 µM"
- Mol: "C=C(CC[C@@H](C(=O)O)[C@H]1[C@H](O)C[C@@]2(C)C3=C(CC[C@]12C)[C@@]1(C)CC[C@H](O)C(C)(C)[C@@H]1CC3=O)C(C)C"
  Measured target: "K562"
  Endpoint: "IC50"
  Result: "> 40 µM"
- Mol: "C=C(CC[C@@H](C(=O)O)[C@H]1[C@H](O)C[C@@]2(C)C3=CC[C@@H](C(=C)C)[C@](C)(CCC(=O)O)C3=CC[C@]12C)C(C)C"
  Measured target: "K562"
  Endpoint: "IC50"
  Result: "> 40 µM"
- Mol: "C=C(CC[C@@H](C(=O)O)[C@H]1[C@H](O)C[C@@]2(C)C3=CC[C@H]4C(C)(C)[C@H](O)CC[C@]4(C)C3=CC[C@]12C)C(C)C"
  Measured target: "K562"
  Endpoint: "IC50"
  Result: "> 40 µM"
- Mol: "COc1cccc2c1C(=O)c1c(O)c3c(c(O)c1C2=O)C[C@@](O)(C(=O)CO)C[C@@H]3O[C@H]1C[C@H](N)[C@H](O)[C@H](C)O1"
  Measured target: "K562"
  Endpoint: "IC50"
  Result: "0.5 µM"

Values compiled from ChEMBL document CHEMBL3994573.
